Where do the numbers come from? From patent US10081632B2.

Recorded IC50 values (RSK2 (Homo sapiens (Human), UniProt P51812)) are given below.

Here is how some compounds turned out for IC50.
[[record]]
compound_smiles = "CN1CCc2oc3ccc(NC(=O)c4cnn(Cc5ccccc5)c4)cc3c2C1"
property_measured = "IC50"
val = "> 1000 nM"

[[record]]
compound_smiles = "O=C(Nc1ccc2scc(CN3CCOCC3)c2c1)c1cnn(Cc2ccccc2)c1"
property_measured = "IC50"
val = "> 10000 nM"

[[record]]
compound_smiles = "C[C@@H]1CNC(=O)c2cc3ccc(C(=O)Nc4cnn(Cc5ccc(N)cc5)c4)nc3n21"
property_measured = "IC50"
val = "20 nM"

[[record]]
compound_smiles = "O=C(Nc1ccc2c(CN3CCOCC3)c[nH]c2c1)c1cnn(Cc2ccccc2)c1"
property_measured = "IC50"
val = "> 10000 nM"

[[record]]
compound_smiles = "O=C(Nc1ccc2[nH]cc(CN3CCOCC3)c2c1)c1cnn(Cc2ccccc2)c1"
property_measured = "IC50"
val = "> 10000 nM"

[[record]]
compound_smiles = "O=C(Nc1ccc2c(CN3CCOCC3)coc2c1)c1cnn(Cc2ccccc2)c1"
property_measured = "IC50"
val = "> 10000 nM"

[[record]]
compound_smiles = "O=C(Nc1ccc2cc3n(c2c1)CCNC3=O)c1cnn(Cc2ccccc2)c1"
property_measured = "IC50"
val = "> 1000 nM"


Switching to the query record.
Noted for CN1CCc2[nH]c3ccc(NC(=O)c4cnn(Cc5ccccc5)c4)cc3c2C1 : its IC50 reads > 1000 nM

----------
Tested on: T47D cells
test.summary: Monolayer growth inhibition, Alamar blue assay
Type: cell-based, Human
condition.summary: Homo sapiens, T47D, T47D (ER/PR), 5 days, single dose on day 1
property.measured: pIC50
Answers are plain numbers, as −log10 of the molar value.

The compound C[C@@H]1CNC(=O)c2cc3ccc(NC(=O)c4cnn(Cc5ccccc5)c4)nc3n21 [Compound 15] , tested on T47D cells, showed pIC50 of 5.11

----------
Could you please report measured pIC50 for the items listed next?
System: SUM149 cells
test.summary: Monolayer growth inhibition, crystal violet assay
Assay type: cell-based
condition.summary: Homo sapiens, SUM149, SUM149 (TNBC, BRCA Mutant), 5 days, single dose on day 1
Numbers only, as −log10 of the molar value.

[[record]]
compound_smiles = "C[C@@H]1CNC(=O)c2cc3ccc(NC(=O)c4cnn(Cc5ccccc5)c4)nc3n21"
val = 5.00


Switching to the query record.
Noted for C[C@@H]1CNC(=O)c2cc3ccc(C(=O)Nc4cnn(Cc5ccc(N)cc5)c4)nc3n21 : its pIC50 reads 5.62

----------
test.summary: Solubility assessment, 20 mg/ml solution
Format: physicochemical
condition.summary: 100 mM in DMSO diluted in DMEM growth media to 20 mg/ml
property.measured: Solubility, 20 mg/ml Solution

Here is how some compounds turned out for Solubility, 20 mg/ml Solution.
[[record]]
compound_smiles = "C[C@@H]1CNC(=O)c2cc3ccc(C(=O)Nc4cnn(CC5CCN(C)CC5)c4)nc3n21"
val = "Soluble"

[[record]]
compound_smiles = "C[C@@H]1CNC(=O)c2cc3ccc(C(=O)Nc4cnn(Cc5ccc(C(F)(F)F)cc5)c4)nc3n21"
val = "Precipitate"

[[record]]
compound_smiles = "C[C@@H]1CNC(=O)c2cc3ccc(C(=O)Nc4ccccc4C(N)=O)nc3n21"
val = "Soluble"

[[record]]
compound_smiles = "C[C@@H]1CNC(=O)c2cc3ccc(C(=O)Nc4cnn(Cc5ccc(N)cc5)c4)nc3n21"
val = "Soluble"

[[record]]
compound_smiles = "C[C@@H]1CNC(=O)c2c(Cl)c3ccc(C(=O)Nc4cnn(Cc5ccccc5)c4)nc3n21"
val = "Precipitate"


Switching to the query record.
Noted for C[C@@H]1CNC(=O)c2cc3ccc(C(=O)Nc4cnn(Cc5ccc(F)cc5F)c4)nc3n21 : its Solubility, 20 mg/ml Solution reads Precipitate

----------
Could you please report measured pIC50 for the items listed next?
Tested on: SUM149-PTXR cells
test.summary: Monolayer growth inhibition, crystal violet assay
Format: cell-based
condition.summary: Homo sapiens; SUM149-PTXR (TNBC, BRCA Mutant), 5 days, single dose on day 1
From the text: In all instances a single dose was given on day 1 of the experiment.
Structures can show the parent of a compound that is named as a salt.
Give bare numbers, as −log10 of the molar value.

Here is how some compounds turned out for pIC50.
[[record]]
compound = "C[C@@H]1CNC(=O)c2cc3ccc(C(=O)Nc4cnn(Cc5ccc(C(F)(F)F)cc5)c4)nc3n21 [Compound 22]"
val = 5.10

[[record]]
compound = "C[C@@H]1CNC(=O)c2c(Cl)c3ccc(C(=O)Nc4cnn(Cc5ccccc5)c4)nc3n21 [Compound 24]"
val = 5.35

[[record]]
compound = "C[C@@H]1CNC(=O)c2cc3ccc(C(=O)Nc4ccccc4C(N)=O)nc3n21 [Compound 21]"
val = 5.70


Please state, for each entry, its recorded pIC50.
1. C[C@@H]1CNC(=O)c2cc3ccc(C(=O)Nc4cnn(Cc5cccc(N)c5)c4)nc3n21 [Compound 16]
2. C[C@@H]1CNC(=O)c2cc3ccc(C(=O)Nc4cnn(Cc5ccc(CN)cc5)c4)nc3n21 [Compound 26, hydrochloride salt]
3. C[C@@H]1CNC(=O)c2cc3ccc(NC(=O)c4cnn(Cc5ccccc5)c4)cc3n21 [Compound 11]
4. C[C@@H]1CNC(=O)c2cc3ccc(NC(=O)c4cnn(Cc5cccc(N)c5)c4)nc3n21 [Compound 19]
5. C[C@@H]1CNC(=O)c2cc3ccc(C(=O)Nc4cnn(Cc5ccccc5N)c4)nc3n21 [Compound 17]
6. C[C@@H]1CNC(=O)c2cc3ccc(C(=O)Nc4cnn(Cc5ccc(F)cc5F)c4)nc3n21 [Compound 23]
7. C[C@@H]1CNC(=O)c2cc3ccc(NC(=O)c4cnn(Cc5ccccc5)c4)nc3n21 [Compound 15]

Reply:
[5.46, 5.19, 4.35, 4.89, 5.28, 5.30, 5.06]

----------
Tested on: CD34+ cells
test.summary: Colony forming unit hematopoietic stem cell assay
Format: cell-based, human
condition.summary: ratio IC50 against CD34+ cells and MDA-MB-231 cells (SA)
property.measured: Therapeutic Window (X)
Give bare numbers, in X.

Here is how some compounds turned out for Therapeutic Window.
[[record]]
compound = "C[C@@H]1CNC(=O)c2cc3ccc(C(=O)Nc4cnn(Cc5ccccc5)c4)nc3n21 [Compound 0, reference compound]"
val = 50

[[record]]
compound = "CC(=O)O[C@H]1C(=O)[C@@]2(C)[C@H]([C@H](OC(=O)c3ccccc3)[C@]3(O)C[C@H](OC(=O)[C@H](O)[C@@H](NC(=O)c4ccccc4)c4ccccc4)C(C)=C1C3(C)C)[C@]1(OC(C)=O)CO[C@@H]1C[C@@H]2O [Taxol, paclitaxel, reference compound]"
val = 6.9


Switching to the query record.
Noted for C[C@@H]1CNC(=O)c2cc3ccc(C(=O)Nc4cnn(Cc5ccc(N)cc5)c4)nc3n21 [Compound 18] : its Therapeutic Window reads 163

----------
System: 4T1 cells
test.summary: Monolayer growth inhibition, crystal violet assay
Type: cell-based
condition.summary: Mus musculus; 4T1 (TNBC), 5 days, single dose on day 1
Group membership follows IC50 per the scheme label 0: < 2000 nM; label 1: ≥ 2000 nM and < 5000 nM; label 2: ≥ 5000 nM

[[record]]
compound_smiles = "C[C@@H]1CNC(=O)c2cc3ccc(C(=O)Nc4cnn(Cc5ccc(C(F)(F)F)cc5)c4)nc3n21"
category = "label 1"

[[record]]
compound_smiles = "C[C@@H]1CNC(=O)c2cc3ccc(C(=O)Nc4ccccc4C(N)=O)nc3n21"
category = "label 0"

[[record]]
compound_smiles = "C[C@@H]1CNC(=O)c2cc3ccc(C(=O)Nc4cnn(Cc5ccc(F)cc5F)c4)nc3n21"
category = "label 0"


Next molecule, please.
Ask: Assign a category based on measured IC50 for C[C@@H]1CNC(=O)c2cc3ccc(NC(=O)c4cnn(Cc5ccccc5)c4)cc3n21 and give only the class name.
Reply: label 2

----------
Test system: T47D cells
test.summary: Monolayer growth inhibition, Alamar blue assay
Format: cell-based, Human
condition.summary: Homo sapiens; T47D (ER/PR), 5 days, single dose on day 1
Structures can show the parent of a compound that is named as a salt.
property.measured: pIC50
Numbers only, as −log10 of the molar value.

Here is how some compounds turned out for pIC50.
[[record]]
compound = "C[C@@H]1CNC(=O)c2cc3ccc(C(=O)Nc4cnn(Cc5ccc(N)cc5)c4)nc3n21 [Compound 25, hydrochloride salt]"
property_measured = "pIC50"
val = 5.05

[[record]]
compound = "C[C@@H]1CNC(=O)c2cc3ccc(C(=O)Nc4cnn(Cc5ccc(C(F)(F)F)cc5)c4)nc3n21"
property_measured = "pIC50"
val = 5.32

[[record]]
compound = "C[C@@H]1CNC(=O)c2cc3ccc(NC(=O)c4cnn(Cc5ccccc5)c4)cc3n21"
property_measured = "pIC50"
val = 4.32

[[record]]
compound = "C[C@@H]1CNC(=O)c2c(Cl)c3ccc(C(=O)Nc4cnn(Cc5ccccc5)c4)nc3n21"
property_measured = "pIC50"
val = 5.35

[[record]]
compound = "C[C@@H]1CNC(=O)c2cc3ccc(NC(=O)c4cnn(Cc5cccc(N)c5)c4)nc3n21"
property_measured = "pIC50"
val = 4.87

[[record]]
compound = "C[C@@H]1CNC(=O)c2cc3ccc(C(=O)Nc4cnn(Cc5ccc(F)cc5F)c4)nc3n21"
property_measured = "pIC50"
val = 5.22

[[record]]
compound = "C[C@@H]1CNC(=O)c2cc3ccc(C(=O)Nc4ccccc4C(N)=O)nc3n21"
property_measured = "pIC50"
val = 5.10

[[record]]
compound = "C[C@@H]1CNC(=O)c2cc3ccc(C(=O)Nc4cnn(Cc5ccccc5N)c4)nc3n21"
property_measured = "pIC50"
val = 5.24


Switching to the query record.
The compound C[C@@H]1CNC(=O)c2cc3ccc(C(=O)Nc4cnn(Cc5cccc(N)c5)c4)nc3n21 , tested on T47D cells, showed pIC50 of 5.33
